Entry source: ChEMBL document CHEMBL3352684

- target: Orexin/Hypocretin receptor type 1 (Homo sapiens, UniProt O43613, I408V)
- Sequence (O43613 whole entry I408V): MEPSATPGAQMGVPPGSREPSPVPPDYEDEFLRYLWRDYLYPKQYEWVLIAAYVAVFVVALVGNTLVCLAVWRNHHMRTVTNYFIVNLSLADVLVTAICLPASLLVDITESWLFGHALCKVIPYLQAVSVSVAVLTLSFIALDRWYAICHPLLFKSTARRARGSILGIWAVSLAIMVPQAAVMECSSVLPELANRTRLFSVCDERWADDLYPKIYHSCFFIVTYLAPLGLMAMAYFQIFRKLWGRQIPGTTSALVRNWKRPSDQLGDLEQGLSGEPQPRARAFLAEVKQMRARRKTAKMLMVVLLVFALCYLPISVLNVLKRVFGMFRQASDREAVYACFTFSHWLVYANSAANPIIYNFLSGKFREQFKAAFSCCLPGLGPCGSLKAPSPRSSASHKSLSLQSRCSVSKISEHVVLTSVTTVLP
- measurement.notes: Displacement of N-cyclobutyl-5-methyl-N-(2-([3H]-1-methyl-1H-benzo[d]imidazol-2-ylthio)ethyl)-2-(2H-1,2,3-triazol-2-yl)benzamide from human OX1R I408V mutant expressed in CHO cells by topcount analysis
assay.readout: Ki
A complete answer gives the number and then names the unit.

smiles.code | assay.value
COc1ccc(CNC(=O)c2sc(-c3cncc(C)c3)nc2-c2cccc(F)c2)nc1OC | 12 µM

Please look at the items below and tell me Ki for each one, in order.
1. COc1ccc(CNC(=O)c2nc(-c3cncc(C)c3)cnc2-c2ccccc2)nc1OC
2. COc1ccc(CNC(=O)c2cc(-c3cncc(C)c3)ncc2-c2ccccn2)nc1OC

Ans.
8.5 µM
7.9 µM
